- System: modified version of the GPR119 receptor (94% identity to human receptor)
- EXPERIMENT SUMMARY: cAMP production assay (LANCE cAMP kit, TR-FRET) in HEK-293 cells
- Assay type: cell-based
- ASSAY CONDITIONS: HEK-293 cells stably expressing modified GPR119; test compounds 0.2 nM to 10 μM, one-hour incubation
Counter-ions that a name gives are not always drawn.
READOUT LABEL: cAMP production in HEK-293 cells (nmol)
Only the number, expressed in nmol, is required.

Below, each entry is followed by its recorded cAMP production in HEK-293 cells result.
• CCS(=O)(=O)c1ccc(NC2CCN(C3CCN(c4nc(C(C)C)ns4)CC3)C2=O)cc1F (stereo not drawn) = 22.6
• CC(C)c1nsc(N2CCC(N3CCCC(Oc4cc(F)c(S(C)(=O)=O)cc4F)C3=O)CC2)n1 (stereo not drawn) = 16.2

Incoming: I'd like to know its cAMP production in HEK-293 cells. The compound in question is CS(=O)(=O)c1ccc(O[C@H]2CCN(C3CCN(c4nc(C(F)(F)F)ns4)CC3)C2=O)c(F)c1
Outgoing: 11.1

Incoming: Same again, this time with CSc1ccc(OC2CCN(C3CCN(c4nc(C(C)C)ns4)CC3)C2=O)cc1 (stereo not drawn)
Outgoing: 17.8

Incoming: // next record Cc1ncccc1Oc1nsc(N2CCC(N3CC[C@H](Oc4ccc(S(C)(=O)=O)cc4F)C3=O)CC2)n1
Outgoing: 5.7

Incoming: Quick one: CC(C)Cc1nsc(N2CCC(N3CCC[C@H](Nc4ccc(S(C)(=O)=O)cc4F)C3=O)CC2)n1
Outgoing: 11.6

Incoming: Likewise for CC(C)c1nsc(N2CCC(N3CCC(Oc4ccc(S(=O)(=O)C(C)C)cc4F)C3=O)CC2)n1 (stereo not drawn) ?
Outgoing: 17.8

Incoming: Try this compound next: CS(=O)(=O)c1cc(F)c(OC2CCN(C3CCN(c4nc(C5CC5)ns4)CC3)C2=O)cc1F.O=C(O)C(F)(F)F (stereo not drawn)
Outgoing: 9.8

Incoming: Now consider CC1(c2nsc(N3CCC(N4CC[C@H](Oc5ccc(S(C)(=O)=O)cc5F)C4=O)CC3)n2)CCOCC1 .
Outgoing: 13.2

Incoming: Likewise for CC(C)c1nsc(N2CCC(N3CCC(Oc4ccc(S(=O)(=O)CC5CC5)cc4F)C3=O)CC2)n1 (stereo not drawn) [Example 44, trifluoroacetate] ?
Outgoing: 23.8

Incoming: Now try Cc1cc(S(C)(=O)=O)cnc1N[C@H]1CCN(C2CCN(c3nc(C(C)C)ns3)CC2)C1=O .
Outgoing: 11.2

Incoming: Also CN(C)c1nsc(N2CCC(N3CC[C@H](Oc4cc(F)c(S(C)(=O)=O)cc4F)C3=O)CC2)n1 ?
Outgoing: 17.2

Incoming: How about this compound: CC(C)c1nsc(N2CCC(N3CC[C@H](Nc4ccc(S(C)(=O)=O)cc4Cl)C3=O)CC2)n1
Outgoing: 17.5

Incoming: Now consider CS(=O)(=O)c1ccc(O[C@H]2CCN(C3CCN(c4nc(-c5cnco5)ns4)CC3)C2=O)c(F)c1 .
Outgoing: 11.4

Incoming: Moving on to CS(=O)(=O)c1ccc(N[C@H]2CCN(C3CCN(c4nc(C5CC5)ns4)CC3)C2=O)c(F)c1
Outgoing: 11.9

Incoming: And CC(C)c1nsc(N2CCC(N3CCC(Cc4ccc(S(C)(=O)=O)cc4)C3=O)CC2)n1 (stereo not drawn) ?
Outgoing: 18.4

Incoming: Request: CS(=O)(=O)c1cc(F)c(O[C@H]2CCN(C3CCN(c4cnc(C(F)(F)F)o4)CC3)C2=O)cc1F
Outgoing: 19.0

Incoming: Item: CC(C)c1nsc(N2CCC(N3CC[C@H](Oc4ccc(S(C)(=O)=O)nc4)C3=O)CC2)n1
Outgoing: 28.1

Incoming: And the next one, CS(=O)(=O)c1ccc(O[C@H]2CCN(C3CCN(c4nc(Oc5ccccc5)ns4)CC3)C2=O)c(F)c1 ?
Outgoing: 15.3

---

- Tested on: modified version of the GPR119 receptor (94% identity to human receptor)
- EXPERIMENT SUMMARY: cAMP production assay (LANCE cAMP kit, TR-FRET) in HEK-293 cells
- Assay type: cell-based
- ASSAY CONDITIONS: HEK-293 cells stably expressing modified GPR119; test compounds 0.2 nM to 10 μM, one-hour incubation
READOUT LABEL: cAMP production in HEK-293 cells
Give the figure together with its unit, number first.

Worked set:
* CC(C)c1nsc(N2CCC(N3CCC(Oc4ccc(C(=O)NCCO)cc4F)C3=O)CC2)n1.Cl (stereo not shown) | 15.1 nmol
* CCS(=O)(=O)c1ccc(N[C@H]2CCN(C3CCN(c4nc(C(C)C)ns4)CC3)C2=O)c(F)c1 | 25.3 nmol
* CS(=O)(=O)c1ccc(O[C@H]2CCN(C3CCN(c4nc(C5CCOCC5)ns4)CC3)C2=O)c(F)c1 | 28.3 nmol
* CC(C)c1nsc(N2CCC(N3CC[C@H](Nc4ncc(S(C)(=O)=O)cn4)C3=O)CC2)n1 | 17.5 nmol
* CS(=O)(=O)c1ccc(N[C@H]2CCCN(C3CCN(c4nc(-c5ccccc5)ns4)CC3)C2=O)c(F)c1 | 7.3 nmol

Incoming: Record lookup: for modified version of the GPR119 receptor (94% identity to human receptor), what cAMP production in HEK-293 cells belongs to CC(C)c1nsc(N2CCC(N3CCC(Oc4ccc(S(C)(=O)=O)cc4)C3=O)CC2)n1 (stereo not shown) ?
Outgoing: 22.1 nmol

Incoming: # repeat for Cc1cc(O[C@H]2CCN(C3CCN(c4nc(C(C)C)ns4)CC3)C2=O)c(F)cc1S(C)(=O)=O
Outgoing: 48.4 nmol

Incoming: Repeat for the following compound: CC(C)c1nsc(N2CCC(N3CC[C@H](Nc4ccc(S(=O)(=O)C5CC5)cc4F)C3=O)CC2)n1
Outgoing: 24.2 nmol

Incoming: # repeat for COC(C)(C)c1nsc(N2CCC(N3CC[C@H](Nc4ccc(S(C)(=O)=O)cc4F)C3=O)CC2)n1
Outgoing: 8.1 nmol

Incoming: Same question, CC(C)c1nsc(N2CCC(N3CC[C@H](Nc4ccc(S(C)(=O)=O)c(Cl)c4)C3=O)CC2)n1 this time
Outgoing: 10.8 nmol

Incoming: Same question for CC(C)c1nsc(N2CCC(N3CC[C@H](Oc4ccc(S(C)(=O)=O)c(F)c4)C3=O)CC2)n1 please.
Outgoing: 24.5 nmol

Incoming: Follow-up item: CC(C)c1nsc(N2CCC(N3CC[C@H](Oc4cc(F)c(S(C)(=O)=O)cc4F)C3=O)CC2)n1
Outgoing: 24.6 nmol

Incoming: Next record, please: CC(C)Cc1nsc(N2CCC(N3CC[C@H](Oc4ccc(S(C)(=O)=O)cc4F)C3=O)CC2)n1
Outgoing: 17.4 nmol

---

- Tested on: modified version of the GPR119 receptor (94% identity to human receptor)
- EXPERIMENT SUMMARY: cAMP production assay (LANCE cAMP kit, TR-FRET) in HEK-293 cells
- Assay type: cell-based
- ASSAY CONDITIONS: HEK-293 cells stably expressing modified GPR119; test compounds 0.2 nM to 10 μM, one-hour incubation
- Procedure: The assay utilized HEK-293 cells that stably express a modified version of the GPR119 receptor (94% identity to human receptor), under the control of a CMV promoter containing a tet-on element for tetracycline-inducible expression. GPR119 agonist-induced cyclic AMP (cAMP) production was measured in this cell line using the LANCE cAMP kit (Perkin Elmer, Waltham, Mass.). […] Cellular cAMP levels were then determined by interpolation of raw signal data using a cAMP standard curve. […]
Entries whose cAMP production in HEK-293 cells is below 20 nmol take True; entries at or above 20 nmol take False.

Reference set, count: 2
* CC(C)c1nsc(N2CCC(N3CCC(Oc4ccc(S(=O)(=O)c5ccccc5)cc4F)C3=O)CC2)n1 (stereo not shown) [Example 62] | True
* CCS(=O)(=O)c1ccc(OC2CCN(C3CCN(c4nc(C(C)C)ns4)CC3)C2=O)c(F)c1 (stereo not shown) [Example 61] | False

Incoming: Quick check: does CC(C)c1nsc(N2CCC(N3CCC(Oc4ccc(C(=O)N(C)CCO)cc4F)C3=O)CC2)n1 (stereo not shown) [Example 79] have cAMP production in HEK-293 cells under 20 nmol?
Outgoing: True

Incoming: And the next one, CC(C)c1nsc(N2CCC(N3CC[C@H](Nc4cc(F)c(S(C)(=O)=O)cc4F)C3=O)CC2)n1 [Example 5] ?
Outgoing: True

Incoming: Follow-up item: CC(C)c1nsc(N2CCC(N3CC[C@H](Nc4ccc(Br)cn4)C3=O)CC2)n1 [Example 15]
Outgoing: True

---

The entries below come with measured cAMP production in HEK-293 cells values attached.
- Tested on: modified version of the GPR119 receptor (94% identity to human receptor)
- EXPERIMENT SUMMARY: cAMP production assay (LANCE cAMP kit, TR-FRET) in HEK-293 cells
- Type: cell-based
- ASSAY CONDITIONS: HEK-293 cells stably expressing modified GPR119; test compounds 0.2 nM to 10 μM, one-hour incubation
Structures can show the parent of a compound that is named as a salt.
The reply should be a number in nmol, with the unit left off.

Worked cases, cAMP production in HEK-293 cells given:
* CC(C)c1nsc(N2CCC(N3CC[C@H](Oc4ccc(S(C)(=O)=O)c(Cl)c4)C3=O)CC2)n1 | 17.2
* CC(C)c1nsc(N2CCC(N3CC[C@H](Nc4ccc(S(C)(=O)=O)cc4C#N)C3=O)CC2)n1 | 11.3
* CC(C)Cc1nsc(N2CCC(N3CCC(Oc4cc(F)c(S(C)(=O)=O)cc4F)C3=O)CC2)n1 (stereo not shown) [Example 49, trifluoroacetate] | 15.4

Below: the item to evaluate.
Incoming: Query (molecule): CC(C)Cc1nsc(N2CCC(N3CC[C@H](Nc4ccc(S(C)(=O)=O)cc4F)C3=O)CC2)n1 [Example 22, trifluoroacetate] ; field requested: cAMP production in HEK-293 cells
Outgoing: 22.1

Where these numbers come from: patent US20140256756A1
